src = patent US20130143299A1

- Target entity: T1, Escherichia coli thioredoxin, purchased from Sigma (Escherichia coli, UniProt P0AA25 2-109 = thioredoxin)
- T1 construct: Immobilised on the plate for ELISA; also called Trx
- T1 sequence (P0AA25 2-109 limits assumed): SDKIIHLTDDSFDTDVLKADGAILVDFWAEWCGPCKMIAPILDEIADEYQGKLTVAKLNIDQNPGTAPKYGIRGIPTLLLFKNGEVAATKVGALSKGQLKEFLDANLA
- Assay: ELISA, purified clone 500 ng/well on immobilised antigen, anti-FLAG-HRP detection
Endpoint: ELISA (S/N)

Reference set (4 entries):
Trx-binding clone group C (RNF8-FHA domain-modified protein) (designed binder, Loop 4 GVFRKG; loops 1-3 as Trx group A; not shown: N-terminal fusion partner from vector pET-MalStrep (MBP/Strep) and FLAG tag) GEPGFFVTGDRAGGRSWCLRRVGMSAGWLLLEDGCEVTVGFVPGVTYQLVSKVLFAEKNANHCVLKQNPEGQWTIMDNKVWNGVWLNRARLEPLRVYSIHQGDYIQLGGVFRKGENAEYEYEVTEEDWETIYPCLSPKNDQMIEKN = 4.4 S/N
Trx-binding clone group H (RNF8-FHA domain-modified protein) (designed binder, not shown: N-terminal fusion partner from vector pET-MalStrep (MBP/Strep) and FLAG tag) GEPGFFVTGDRAGGRSWCLRRVGMSAGWLLLEDGCEVTVGSDWGVTYQLVSKRWLGNVVFNHCVLKQNPEGQWTIMDNKAGHGVWLNRARLEPLRVYSIHQGDYIQLGEPSSLHENAEYEYEVTEEDWETIYPCLSPKNDQMIEKN = 5.7 S/N
Trx-binding clone group G (RNF8-FHA domain-modified protein) (designed binder, not shown: N-terminal fusion partner from vector pET-MalStrep (MBP/Strep) and FLAG tag) GEPGFFVTGDRAGGRSWCLRRVGMSAGWLLLEDGCEVTVGFLPGVTYQLVSKPMRREKNMNHCVLKQNPEGQWTIMDNKVRIGVWLNRARLEPLRVYSIHQGDYIQLGQVSPLGENAEYEYEVTEEDWETIYPCLSPKNDQMIEKN = 22.2 S/N
Trx-binding clone group A (RNF8-FHA domain-modified protein) (designed binder, also called Trx clone A; not shown: N-terminal fusion partner from vector pET-MalStrep (MBP/Strep) and FLAG tag) GEPGFFVTGDRAGGRSWCLRRVGMSAGWLLLEDGCEVTVGFVPGVTYQLVSKVLFAEKNANHCVLKQNPEGQWTIMDNKVWNGVWLNRARLEPLRVYSIHQGDYIQLGQVSPLGENAEYEYEVTEEDWETIYPCLSPKNDQMIEKN = 30.5 S/N

Next up:
query: Given the binder Trx-binding clone group D (RNF8-FHA domain-modified protein) (designed binder, Loop 4 RGCLGL; loops 1-3 as Trx group A; not shown: N-terminal fusion partner from vector pET-MalStrep (MBP/Strep) and FLAG tag) GEPGFFVTGDRAGGRSWCLRRVGMSAGWLLLEDGCEVTVGFVPGVTYQLVSKVLFAEKNANHCVLKQNPEGQWTIMDNKVWNGVWLNRARLEPLRVYSIHQGDYIQLGRGCLGLENAEYEYEVTEEDWETIYPCLSPKNDQMIEKN , what is its reported ELISA (S/N)?
result: 4.7 S/N
